# target.of.assay: NDM-1 (Klebsiella pneumoniae)
# Sequence (C7C422 29-270, looked up, species assumed): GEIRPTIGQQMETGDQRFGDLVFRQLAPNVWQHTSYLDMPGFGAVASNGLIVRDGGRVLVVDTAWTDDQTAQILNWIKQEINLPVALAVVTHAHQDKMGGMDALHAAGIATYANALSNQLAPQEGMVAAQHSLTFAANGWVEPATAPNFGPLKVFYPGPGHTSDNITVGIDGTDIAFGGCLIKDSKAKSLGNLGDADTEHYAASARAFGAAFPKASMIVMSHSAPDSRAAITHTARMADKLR
# test: Enzyme activity: determination of IC50, fluorescence assay with CCF2-FA substrate
# Assay type: biochemical
# reported.conditions: enzyme 1 pM, CCF2-FA 1.25 μM, 2 hours at 25° C.; read-out: NDM1 IC50
measure: pIC50
// scale note: pIC50 = -log10(conc_M); give the bare number

Sample records with pIC50:
>>> test_value("O=C(O)[C@@H](C1CCOCC1)[C@H](Cc1ccccc1)c1nnn[nH]1 [Example 12]")
7.00
>>> test_value("CCC[C@H](C(=O)O)[C@H](Cc1ccncc1)c1nnn[nH]1 [Example 88]")
6.74
>>> test_value("CCC[C@H](C(=O)O)[C@H](Cc1ccc(N2CCC[C@H](N)C2)cc1)c1nn[nH]n1 [Example 230]")
6.52
>>> test_value("CCC[C@H](C(=O)O)[C@H](Cc1ccc(N2CCN(c3ccccc3)CC2)cc1)c1nn[nH]n1 [Example 226]")
7.70

*Q* Query the reported pIC50 for NDM-1 (Klebsiella pneumoniae); item: CCC[C@H](C(=O)O)[C@H](Cc1ccccc1C(N)=O)c1nnn[nH]1 [Example 47]
*A* 6.92

*Q* Any idea what pIC50 came out for CC(C)[C@H](C(=O)O)[C@H](Cc1cccc(NCCO)n1)c1nnn[nH]1 [Example 138] on NDM-1 (Klebsiella pneumoniae)?
*A* 6.31

*Q* GET /values?readout=pIC50&system=NDM-1 (Klebsiella pneumoniae)&item= CC(C)C[C@H](C(=O)O)[C@H](Cc1ccc(-c2ccc(N)nc2)cn1)c1nn[nH]n1 [Example 172]
*A* 7.28

*Q* Give pIC50 (NDM-1 (Klebsiella pneumoniae)) of the following compound: CCC[C@@H](C(=O)O)[C@H](Cc1ccc(-c2ccc(N3CCNCC3)nc2)cc1)c1nnn[nH]1 [Example 57]
*A* 6.19

*Q* Give recorded pIC50 with NDM-1 (Klebsiella pneumoniae) for the following compound: CC(C)C[C@H](C(=O)O)[C@H](Cc1ccc(-c2ccc(CO)cc2)cn1)c1nn[nH]n1 [Example 171]
*A* 7.33
